# test_target: Brd4 (L) (Homo sapiens, UniProt O60885)
# Construct: endogenous in cells; host or cells: HEK293, HeLa
# assay_explanation: Concentration-dependent BET degradation, immunoblot, HeLa cells
# Format: cell-based
# test_conditions: 6 h treatment, 1 nM-10 μM
Each entry below lists one item and its recorded DC50 value.
measured_parameter: DC50

- compound: "CCCC(NC(=O)/C(C#N)=C/c1nc(Cl)ccc1Cl)c1ccc(OCCOCCOCCOCCOCCOCCOCCNC(=O)c2ccc(-c3ccc4c(c3)[C@H](Nc3ccc(Cl)cc3)C[C@H](C)N4C(C)=O)cc2)cc1 (stereo partly drawn)"
  reported_measurement: "≤ 50 nM"
- compound: "CCCC(NC(=O)/C(C#N)=C/c1cccc(Br)n1)c1ccc(OCCOCCOCCOCCOCCOCCOCCNC(=O)c2ccc(-c3ccc4c(c3)[C@H](Nc3ccc(Cl)cc3)C[C@H](C)N4C(C)=O)cc2)cc1 (stereo partly drawn)"
  reported_measurement: "51 to 500 nM"
- compound: "CCCC(NC(=O)/C(C#N)=C/c1nccs1)c1ccc(OCCOCCOCCOCCOCCOCCOCCNC(=O)c2ccc(-c3ccc4c(c3)[C@H](Nc3ccc(Cl)cc3)C[C@H](C)N4C(C)=O)cc2)cc1 (stereo partly drawn)"
  reported_measurement: "≤ 50 nM"
- compound: "CCCC(NC(=O)/C(C#N)=C/c1cccc(Br)n1)c1ccc(OCC=NOCC(=O)NCCOCCOCCOCCNC(=O)c2ccc3c(c2)[C@H](Nc2ccc(Cl)cc2)C[C@H](C)N3C(C)=O)cc1 (stereo partly drawn)"
  reported_measurement: "51 to 500 nM"
- compound: "CCCC(NC(=O)/C(C#N)=C/c1cccc(Br)n1)c1ccc(OCC=NOCC(=O)NCCOCCNC(=O)c2ccc3c(c2)[C@H](Nc2ccc(Cl)cc2)C[C@H](C)N3C(C)=O)cc1 (stereo partly drawn)"
  reported_measurement: "51 to 500 nM"
- compound: "CCCC(NC(=O)/C(C#N)=C/c1cccc(Br)n1)c1ccc(OCC=NOCC(=O)NCCOCCOCCOCCOCCOCCNC(=O)c2ccc3c(c2)[C@H](Nc2ccc(Cl)cc2)C[C@H](C)N3C(C)=O)cc1 (stereo partly drawn)"
  reported_measurement: "51 to 500 nM"

###

# test_target: Brd2 (Homo sapiens)
# Sequence (P25440 whole entry): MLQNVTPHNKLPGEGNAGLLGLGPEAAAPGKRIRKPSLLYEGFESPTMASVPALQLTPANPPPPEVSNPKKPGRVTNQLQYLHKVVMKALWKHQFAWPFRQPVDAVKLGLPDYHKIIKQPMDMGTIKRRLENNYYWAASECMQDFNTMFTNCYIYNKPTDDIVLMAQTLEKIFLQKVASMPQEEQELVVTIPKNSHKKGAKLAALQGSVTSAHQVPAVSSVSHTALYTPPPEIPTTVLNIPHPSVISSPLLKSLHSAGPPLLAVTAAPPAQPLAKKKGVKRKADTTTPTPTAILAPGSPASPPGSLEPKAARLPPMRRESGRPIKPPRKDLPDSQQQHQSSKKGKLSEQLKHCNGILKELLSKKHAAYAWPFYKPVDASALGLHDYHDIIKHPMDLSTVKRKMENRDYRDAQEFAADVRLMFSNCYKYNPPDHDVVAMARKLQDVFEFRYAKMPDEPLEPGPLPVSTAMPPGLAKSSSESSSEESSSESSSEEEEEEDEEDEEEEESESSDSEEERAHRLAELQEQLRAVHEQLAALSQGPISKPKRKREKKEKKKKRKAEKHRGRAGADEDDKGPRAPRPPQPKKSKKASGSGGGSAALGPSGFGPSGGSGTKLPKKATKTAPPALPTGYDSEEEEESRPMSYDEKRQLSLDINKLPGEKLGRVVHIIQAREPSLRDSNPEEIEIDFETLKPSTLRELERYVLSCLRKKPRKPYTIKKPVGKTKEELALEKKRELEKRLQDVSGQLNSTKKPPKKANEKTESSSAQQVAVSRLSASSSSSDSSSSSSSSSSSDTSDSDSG
# assay_explanation: Concentration-dependent BET degradation, immunoblot, HeLa cells
# Assay type: cell-based
# Set-up: endogenous in cells; host or cells: HeLa
# test_conditions: Brd2, 6 h treatment, 1 nM-10 μM, read-out: Dmax (%) maximum degradation observed
Below, each of the compounds is paired with its reported Dmax value.

- compound: "CCCC(NC(=O)/C(C#N)=C/c1cccc(Br)n1)c1ccc(OCC=NOCC(=O)NCCOCCOCCOCCNC(=O)c2ccc3c(c2)[C@H](Nc2ccc(Cl)cc2)C[C@H](C)N3C(C)=O)cc1 (stereo partly drawn)"
  test_target: "Brd2 (Homo sapiens)"
  Dmax: "26 to 50%"
- compound: "CCCC(NC(=O)/C=C/c1cccc(Br)n1)c1ccc(OCCOCCOCCOCCOCCOCCOCCNC(=O)c2ccc(-c3ccc4c(c3)[C@H](Nc3ccc(Cl)cc3)C[C@H](C)N4C(C)=O)cc2)cc1 (stereo partly drawn)"
  test_target: "Brd2 (Homo sapiens)"
  Dmax: "≤ 25%"
- compound: "CCCC(NC(=O)/C(C#N)=C/c1nccs1)c1ccc(OCCOCCOCCOCCOCCOCCOCCNC(=O)c2ccc(-c3ccc4c(c3)[C@H](Nc3ccc(Cl)cc3)C[C@H](C)N4C(C)=O)cc2)cc1 (stereo partly drawn)"
  test_target: "Brd2 (Homo sapiens)"
  Dmax: "≥ 71%"

###

Entries annotated with measured DC50
# test_target: Brd4 (L) (Homo sapiens)
# Construct: endogenous in cells; host or cells: HEK293, HeLa
# assay_explanation: Concentration-dependent BET degradation, immunoblot, HEK293 cells
# Type: cell-based
# test_conditions: 6 h treatment, 1 nM-10 μM

- compound: "CCCC(NC(=O)/C(C#N)=C/c1cccc(Br)n1)c1ccc(OCCOCCOCCOCCOCCOCCOCCNC(=O)c2ccc(-c3ccc4c(c3)[C@H](Nc3ccc(Cl)cc3)C[C@H](C)N4C(C)=O)cc2)cc1 (stereo partly drawn) [Example 05IB6]"
  DC50: "≤ 0.05 µM"
- compound: "CCCC(NC(=O)/C(C#N)=C/c1nc(Cl)ccc1Cl)c1ccc(OCCOCCOCCOCCOCCOCCOCCNC(=O)c2ccc(-c3ccc4c(c3)[C@H](Nc3ccc(Cl)cc3)C[C@H](C)N4C(C)=O)cc2)cc1 (stereo partly drawn) [Example 05IB10]"
  DC50: "≤ 0.05 µM"
- compound: "CCCC(NC(=O)/C(C#N)=C/c1cccc(Br)n1)c1ccc(OCC=NOCC(=O)NCCOCCNC(=O)c2ccc3c(c2)[C@H](Nc2ccc(Cl)cc2)C[C@H](C)N3C(C)=O)cc1 (stereo partly drawn) [Example 05IB1]"
  DC50: "≤ 0.05 µM"

###

Here, each record is paired with measured Dmax at 1 µM data.
# test_target: Brd2 (Homo sapiens)
# assay_explanation: Time-dependent BET degradation, immunoblot, HEK293 cells
# Format: cell-based
# Parameters: endogenous in cells; host or cells: HEK293
# test_conditions: HEK293, Brd2, 1 μM, timecourse 0-8 h
measured_parameter: Dmax at 1 µM (%)

- compound: "CCCC(NC(=O)/C(C#N)=C/c1nccs1)c1ccc(OCCOCCOCCOCCOCCOCCOCCNC(=O)c2ccc(-c3ccc4c(c3)[C@H](Nc3ccc(Cl)cc3)C[C@H](C)N4C(C)=O)cc2)cc1 (stereo partly drawn)"
  quantity_unit: "%"
  reported_measurement: 73
- compound: "CCCC(NC(=O)/C(C#N)=C/c1cccc(Br)n1)c1ccc(OCC=NOCC(=O)NCCOCCOCCOCCOCCOCCNC(=O)c2ccc3c(c2)[C@H](Nc2ccc(Cl)cc2)C[C@H](C)N3C(C)=O)cc1 (stereo partly drawn)"
  quantity_unit: "%"
  reported_measurement: 83
- compound: "CCCC(NC(=O)/C(C#N)=C/c1cccc(Br)n1)c1ccc(OCC=NOCC(=O)NCCOCCNC(=O)c2ccc3c(c2)[C@H](Nc2ccc(Cl)cc2)C[C@H](C)N3C(C)=O)cc1 (stereo partly drawn)"
  quantity_unit: "%"
  reported_measurement: 100
- compound: "CCCC(NC(=O)/C(C#N)=C/c1nc(Cl)ccc1Cl)c1ccc(OCCOCCOCCOCCOCCOCCOCCNC(=O)c2ccc(-c3ccc4c(c3)[C@H](Nc3ccc(Cl)cc3)C[C@H](C)N4C(C)=O)cc2)cc1 (stereo partly drawn)"
  quantity_unit: "%"
  reported_measurement: 82
- compound: "CCCC(NC(=O)/C(C#N)=C/c1cccc(Br)n1)c1ccc(OCC=NOCC(=O)NCCOCCOCCOCCNC(=O)c2ccc3c(c2)[C@H](Nc2ccc(Cl)cc2)C[C@H](C)N3C(C)=O)cc1 (stereo partly drawn)"
  quantity_unit: "%"
  reported_measurement: 76
- compound: "CCCC(NC(=O)/C(C#N)=C/c1cccc(Br)n1)c1ccc(OCCOCCOCCOCCOCCOCCOCCNC(=O)c2ccc(-c3ccc4c(c3)[C@H](Nc3ccc(Cl)cc3)C[C@H](C)N4C(C)=O)cc2)cc1 (stereo partly drawn)"
  quantity_unit: "%"
  reported_measurement: 76

###

# test_target: Brd4 (S) (Homo sapiens, UniProt O60885)
# Construct: endogenous in cells; host or cells: HEK293, HeLa
# assay_explanation: Concentration-dependent BET degradation, immunoblot, HeLa cells
# Assay type: cell-based
# test_conditions: 6 h treatment, 1 nM-10 μM, read-out: Dmax (%) maximum degradation observed
Let's look at some compounds and their measured Dmax.
measured_parameter: Dmax

- compound: "CCCC(NC(=O)/C(C#N)=C/c1cccc(Br)n1)c1ccc(OCC=NOCC(=O)NCCOCCNC(=O)c2ccc3c(c2)[C@H](Nc2ccc(Cl)cc2)C[C@H](C)N3C(C)=O)cc1 (some centres unmarked)"
  reported_measurement: "≥ 71%"
- compound: "CCCC(NC(=O)/C(C#N)=C/c1cccc(Br)n1)c1ccc(OCCOCCOCCOCCOCCOCCOCCNC(=O)c2ccc(-c3ccc4c(c3)[C@H](Nc3ccc(Cl)cc3)C[C@H](C)N4C(C)=O)cc2)cc1 (some centres unmarked)"
  reported_measurement: "≥ 71%"
- compound: "CCCC(NC(=O)/C(C#N)=C/c1nc(Cl)ccc1Cl)c1ccc(OCCOCCOCCOCCOCCOCCOCCNC(=O)c2ccc(-c3ccc4c(c3)[C@H](Nc3ccc(Cl)cc3)C[C@H](C)N4C(C)=O)cc2)cc1 (some centres unmarked)"
  reported_measurement: "≥ 71%"
- compound: "CCCC(NC(=O)/C=C/c1cccc(Br)n1)c1ccc(OCCOCCOCCOCCOCCOCCOCCNC(=O)c2ccc(-c3ccc4c(c3)[C@H](Nc3ccc(Cl)cc3)C[C@H](C)N4C(C)=O)cc2)cc1 (some centres unmarked)"
  reported_measurement: "≤ 25%"
- compound: "CCCC(NC(=O)/C(C#N)=C/c1nccs1)c1ccc(OCCOCCOCCOCCOCCOCCOCCNC(=O)c2ccc(-c3ccc4c(c3)[C@H](Nc3ccc(Cl)cc3)C[C@H](C)N4C(C)=O)cc2)cc1 (some centres unmarked)"
  reported_measurement: "≥ 71%"
